System: rodent lifetime carcinogenesis bioassay, tumor incidence TD50
Assay: carcinogenic potency in animals, long-term in vivo studies, CPDB compilation (AID 1745844)
Conditions: rat; strain Fischer 344; males; in feed; site: adrenal medulla; lesion: pheochromocytoma, benign; dosed 104 weeks; study length 104 weeks
result type: TD50 (mg/kg/day)
Supply the numeric figure in mg/kg/day, leaving out any unit text.

Briefly, TD50 measured for COc1cc(S(C)=O)ccc1-c1nc2ccncc2[nH]1 (stereo unspecified) : 45.4

----------
Test system: rodent lifetime carcinogenesis bioassay, tumor incidence TD50
Experiment: carcinogenic potency in animals, long-term in vivo studies, CPDB compilation (AID 1745844)
Conditions: rat; strain Fischer 344; males; in feed; site: liver; lesion: adenoma, NOS + hepatocellular carcinoma; dosed 105 weeks; study length 105 weeks
result type: TD50

TD50 in this record for Clc1cccc(-c2ccc(Cl)c(Cl)c2Cl)c1Cl : 15.1 mg/kg/day
